Cited source for all entries: patent US10428140B2

# tgt: T1, human EphB4 (Homo sapiens, UniProt P54760)
# T1 construct: a protein of the extracellular region of each human Eph receptor fused with the SEAP protein and the His tag; made in house; host or cells: Expi293F cells
# T1 sequence (P54760 16-539 limits assumed): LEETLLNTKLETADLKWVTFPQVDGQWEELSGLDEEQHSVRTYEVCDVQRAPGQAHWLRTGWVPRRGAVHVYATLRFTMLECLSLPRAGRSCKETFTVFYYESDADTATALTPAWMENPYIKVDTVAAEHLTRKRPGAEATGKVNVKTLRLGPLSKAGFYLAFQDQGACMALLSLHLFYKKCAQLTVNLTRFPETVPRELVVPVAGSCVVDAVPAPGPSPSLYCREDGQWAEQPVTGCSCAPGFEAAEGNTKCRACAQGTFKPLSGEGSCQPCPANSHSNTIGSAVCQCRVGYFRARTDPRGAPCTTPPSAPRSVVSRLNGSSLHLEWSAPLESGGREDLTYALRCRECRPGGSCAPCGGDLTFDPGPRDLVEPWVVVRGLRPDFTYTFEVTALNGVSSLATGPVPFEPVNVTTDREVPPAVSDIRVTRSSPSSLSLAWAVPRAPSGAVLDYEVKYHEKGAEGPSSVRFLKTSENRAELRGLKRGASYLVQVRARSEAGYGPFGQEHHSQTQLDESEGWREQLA
# method: Selectivity ELISA of humanized antibodies for human Eph receptor
# Type: binding
# condition.set: coated protein 1 nM
Recorded hEphB4-SEAP-: absorbance at 450 nm, percentage with respect to hEphA4-SEAP-His as 100% by entry
Give the value in % but do not write % after it.

A selection of reference data follows.
[
  {
    "molecule": "159 (antibody, V domains shown, synthetic humanized antibody heavy chain variable region sequence; synthetic humanized antibody light chain variable region sequence) VH: QVQLVQSGSELKKPGASVKVSCKASGYTFTDYSMHWVRQAPGQGLKWMGWINTETGEPTYADDFKGRFVFSLDTSVSTAYLQISSLKAEDTAVYYCARIPLYYYGSRYWYFDVWGQGTTVTVSS VL: DIQMTQSPSSLSASVGDRVTITCRASENIYRNLAWYQQKPGKAPQLLLYAATNLADGVPSRFSGSGSGTDYTLTISSLQPEDFATYYCQHFWGTPWTFGQGTKVEIK",
    "reported.value": 5.4
  },
  {
    "molecule": "83 (antibody, V domains shown, constant regions without entry; synthetic humanized antibody light chain variable region sequence; synthetic humanized antibody heavy chain variable region sequence) VL: DIQMTQSPSSLSASVGDRVTITCRASENIYRNLAWYQQKPGKAPKLLLYAATNLADGVPSRFSGSGSGTDYTLTISSLQSEDFATYYCQHFWGTPWTFGQGTKVEIK VH: QIQLVQSGSELKKPGASVKVSCKASGYTFTDYSMHWVRQAPGQGLKWMGWINTETGEPTYAQGFTGRFVFSLDTSVSTAYLQISSLKAEDTAVYYCARIPLYYYGSRYWYFDVWGQGTTVTVSS",
    "reported.value": 5.7
  },
  {
    "molecule": "89 (antibody, V domains shown, constant regions without entry; synthetic humanized antibody light chain variable region sequence; synthetic humanized antibody heavy chain variable region sequence) VL: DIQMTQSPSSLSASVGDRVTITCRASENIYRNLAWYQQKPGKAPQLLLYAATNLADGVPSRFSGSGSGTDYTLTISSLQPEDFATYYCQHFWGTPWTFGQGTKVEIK VH: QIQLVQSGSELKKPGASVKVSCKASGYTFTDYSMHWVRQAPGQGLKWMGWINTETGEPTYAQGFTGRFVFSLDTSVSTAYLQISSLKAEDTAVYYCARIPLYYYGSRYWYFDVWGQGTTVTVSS",
    "reported.value": 5.8
  },
  {
    "molecule": "136 (antibody, V domains shown, synthetic humanized antibody heavy chain variable region sequence; synthetic humanized antibody light chain variable region sequence) VH: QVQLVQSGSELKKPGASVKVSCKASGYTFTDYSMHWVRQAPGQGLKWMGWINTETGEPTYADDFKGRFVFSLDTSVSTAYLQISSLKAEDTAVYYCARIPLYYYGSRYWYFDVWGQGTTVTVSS VL: EIVMTQSPATLSVSPGERATLSCRASENIYRNLAWYQQKPGQSPRLLIYAATNLADGIPARFSGSGSGTEYTLTISSLQSEDFAVYYCQHFWGTPWTFGQGTKVEIK",
    "reported.value": 5.2
  }
]

Assign hEphB4-SEAP-: absorbance at 450 nm, percentage with respect to hEphA4-SEAP-His as 100% to the following record: 132 (antibody, V domains shown, synthetic humanized antibody heavy chain variable region sequence; synthetic humanized antibody light chain variable region sequence) VH: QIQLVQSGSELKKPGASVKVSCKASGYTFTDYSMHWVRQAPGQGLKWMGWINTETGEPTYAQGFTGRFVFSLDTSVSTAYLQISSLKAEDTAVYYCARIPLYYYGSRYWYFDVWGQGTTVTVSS VL: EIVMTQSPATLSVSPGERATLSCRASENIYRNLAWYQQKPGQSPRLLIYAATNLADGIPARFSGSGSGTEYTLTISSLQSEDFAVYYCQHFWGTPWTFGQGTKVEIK
4.8

Assign hEphB4-SEAP-: absorbance at 450 nm, percentage with respect to hEphA4-SEAP-His as 100% to the following record: 95 (antibody, V domains shown, constant regions without entry; synthetic humanized antibody light chain variable region sequence; synthetic humanized antibody heavy chain variable region sequence) VL: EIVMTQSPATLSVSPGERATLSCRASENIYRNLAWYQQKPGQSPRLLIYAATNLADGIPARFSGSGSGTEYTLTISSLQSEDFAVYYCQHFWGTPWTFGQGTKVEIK VH: QVQLVQSGSELKKPGASVKVSCKASGYTFTDYSMHWVRQAPGQGLEWMGWINTETGEPTYADDFKGRFVFSLDTSVSTAYLQISSLKAEDTAVYYCARIPLYYYGSRYWYFDVWGQGTTVTVSS
4.6

Assign hEphB4-SEAP-: absorbance at 450 nm, percentage with respect to hEphA4-SEAP-His as 100% to the following record: 144 (antibody, V domains shown, synthetic humanized antibody heavy chain variable region sequence; synthetic humanized antibody light chain variable region sequence) VH: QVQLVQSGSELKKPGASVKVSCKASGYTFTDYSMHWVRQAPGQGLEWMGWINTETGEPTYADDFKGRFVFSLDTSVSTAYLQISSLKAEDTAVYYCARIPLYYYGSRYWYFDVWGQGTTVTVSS VL: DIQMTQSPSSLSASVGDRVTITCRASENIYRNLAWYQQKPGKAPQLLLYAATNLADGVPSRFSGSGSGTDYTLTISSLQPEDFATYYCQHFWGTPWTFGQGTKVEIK
5.7
